Target: Luciferin 4-monooxygenase (Photinus pyralis) (UniProt P08659)
Sequence (P08659 whole entry, looked up): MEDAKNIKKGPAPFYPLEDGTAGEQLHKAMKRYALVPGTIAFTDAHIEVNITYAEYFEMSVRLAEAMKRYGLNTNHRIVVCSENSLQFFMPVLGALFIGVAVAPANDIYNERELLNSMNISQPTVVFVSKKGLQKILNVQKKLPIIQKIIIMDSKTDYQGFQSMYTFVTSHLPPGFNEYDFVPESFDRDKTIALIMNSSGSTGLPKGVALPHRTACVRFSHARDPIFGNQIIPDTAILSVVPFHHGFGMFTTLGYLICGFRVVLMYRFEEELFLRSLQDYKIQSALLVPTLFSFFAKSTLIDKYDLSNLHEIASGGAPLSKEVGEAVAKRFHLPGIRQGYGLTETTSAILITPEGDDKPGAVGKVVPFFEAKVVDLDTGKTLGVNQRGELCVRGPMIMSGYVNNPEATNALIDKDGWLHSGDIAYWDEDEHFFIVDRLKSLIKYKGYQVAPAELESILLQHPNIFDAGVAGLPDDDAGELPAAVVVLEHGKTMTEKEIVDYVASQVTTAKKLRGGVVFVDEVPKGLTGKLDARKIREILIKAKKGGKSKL
Experiment: qHTS profiling assay for firefly luciferase inhibitor/activator using purifed enzyme and Km concentrations of substrates (counterscreen for miR-21 project); note: nearly all actives have a fitted effect of over 55% in size
Conditions: purified FLuc, luminescence inhibition; series mostly up to 57.5 µM
Out of some 360,000 compounds screened, about 25,000 (6.9%) were called active. About 9% were inconclusive and are not listed. Calls come from the whole dose curve; as a rule, active = well fitted inhibition curve with a large enough effect; inconclusive = small, poorly fitted or top-dose-only effect; inactive = flat fitted curve, though single readings scatter. This excerpt belongs to a sample that is enriched for actives.
Outcomes: active, inactive

[
  {
    "Molecule": "Cc1c2cnn(-c3ccccc3)c(=O)c2c(C)n1C(C)C(=O)Nc1ccc(Br)cc1F (stereo not given)",
    "Category label": "inactive"
  },
  {
    "Molecule": "CCOC(=O)Cc1csc(NC(=O)CSc2nc(C)cc(=O)[nH]2)n1",
    "Category label": "inactive"
  },
  {
    "Molecule": "COc1ccccc1-c1nc(C(F)(F)F)c(OC)o1",
    "Category label": "inactive"
  },
  {
    "Molecule": "CCc1ccc(-n2nnc(-c3nc(-c4ccccc4)no3)c2C)cc1",
    "Category label": "active"
  },
  {
    "Molecule": "Cc1cc(=O)[nH]c(N/N=C/c2ccc3c(c2)OCCO3)n1",
    "Category label": "active"
  }
]

###

Target: Luciferin 4-monooxygenase (Photinus pyralis) (UniProt P08659)
Test: qHTS profiling assay for firefly luciferase inhibitor/activator using purifed enzyme and Km concentrations of substrates (counterscreen for miR-21 project); note: nearly all actives have a fitted effect of over 55% in size
Conditions: purified FLuc, luminescence inhibition; series mostly up to 57.5 µM
About 25,000 (6.9%) of roughly 360,000 compounds were called active. About 9% were inconclusive and are not listed. Calls follow the shape of the dose curve; as a rule, active = well fitted inhibition curve with a large enough effect; inconclusive = small, poorly fitted or top-dose-only effect; inactive = flat fitted curve, though single readings scatter. This excerpt belongs to a sample that is enriched for actives.
Outcomes: True for active, False for inactive

[
  {
    "Compound": "CC(=O)Nc1ccc(NC(=O)CCCNC(=O)c2ccc(Cl)cc2)cc1",
    "Category label": "False"
  },
  {
    "Compound": "CC(C)CC(=O)Nc1ccc(Cc2ccncc2)cc1",
    "Category label": "False"
  },
  {
    "Compound": "O=C(COC(=O)CCCNC(=O)c1ccc(Cl)cc1)Nc1cc(Cl)ccc1Cl",
    "Category label": "True"
  },
  {
    "Compound": "COc1cccc(/C=N/Nc2ncc(C(F)(F)F)cc2Cl)c1O",
    "Category label": "False"
  },
  {
    "Compound": "CC(=O)Oc1ccc(C)cc1N1C(=O)c2ccc(C(=O)O)cc2C1=O",
    "Category label": "False"
  },
  {
    "Compound": "CCOC(=O)c1c(C)oc2nc(C)nc(N3CCN(c4ccc(OC)cc4)CC3)c12",
    "Category label": "False"
  },
  {
    "Compound": "COc1cccc(/C=N/Nc2cc(C)nc(-c3ccccc3O)n2)c1O",
    "Category label": "True"
  },
  {
    "Compound": "CN1CCNC(=O)C1CC(=O)N1CC=C(c2ccc(F)cc2)CC1 (stereo not given)",
    "Category label": "False"
  },
  {
    "Compound": "COc1ccc(Cl)cc1NC(=O)c1sc2nc3c(cc2c1N)CN(C)CC3",
    "Category label": "False"
  },
  {
    "Compound": "CCCCC(=O)Nc1ccc(C(=O)Nc2cc(C(F)(F)F)ccc2Cl)cc1",
    "Category label": "False"
  },
  {
    "Compound": "COc1ccc(C(=O)COC(=O)CCCC(=O)Nc2cc(C(F)(F)F)ccc2Cl)cc1",
    "Category label": "True"
  },
  {
    "Compound": "COc1cccc(OC)c1C(=O)Nc1ccc(Cc2ccncc2)cc1",
    "Category label": "False"
  },
  {
    "Compound": "COC(=O)[C@]1(C)CCC[C@@]2(C)C3CC[C@]4(OC(C)=O)C[C@@]3(CCC21)CC4=NO (stereo not given in full)",
    "Category label": "False"
  },
  {
    "Compound": "CC(C)CCC(C)NC(=O)c1ccc2nccnc2c1 (stereo not given)",
    "Category label": "False"
  },
  {
    "Compound": "CCc1ccc(NC(=O)Nc2ccncc2)cc1",
    "Category label": "True"
  }
]
